For each record, write down the corresponding Plant response rating (0 to 100 scale), Corn.
Test system: corn
Assay: Test B pre-/postemergence herbicide test
Format: in vivo, Zea mays
Settings: 125 g ai/ha; 0 is no effect, 100 is complete control; preemergence

Examples from the recorded data:
> print(dat)
                                   molecule  measurement.target  observed.measurement
1  CCNC(=O)c1ccc(F)c(NC(=O)c2nn(C(C)(C)C)nc2C)c1                corn                     0
2  CCN(CC)C(=O)c1ccnc(NC(=O)c2nn(C(C)(C)C)nc2C)c1                corn                     0
3  CCn1nc(C(C)(C)C)cc1C(=O)Nc1cc(C(=S)N(C)C)ccn1                corn                    20
4  CCNC(=O)c1cccc(NC(=O)c2nn(C(C)(C)C)nc2C)c1                corn                    70
5  CCOC(=O)c1ccc(F)c(NC(=O)c2nn(C(C)(C)CC)nc2CC)c1                corn                     0
6  CCOC(=O)c1ccc(F)c(NC(=O)C2CN(C(C)(C)C)N=C2CC)c1 (racemic)                corn                    30
7  CCc1nn(C(C)(C)C)nc1C(=O)Nc1cc(C(=O)N(C)C)ccc1F                corn                    30
8  CCc1nn(C(C)C)nc1C(=S)Nc1cccc(C(=S)N(C)C)c1                corn                     0

Attention now shifts to the item below.
Quick one: Plant response rating (0 to 100 scale), Corn of CCc1nn(C(C)(C)C)nc1C(=S)Nc1cccc(C(=S)N(C)C)c1 ?
80
